# logP values compiled below

molecule: COc1cccc(/C=C/C(=O)O)c1
logP: 2.37
//
molecule: O=C(O)Cc1ccccc1O
logP: 1.47
//
molecule: COc1cccc(C(O)C(=O)O)c1 (stereo unspecified)
logP: 1.33
//
molecule: O=C(O)Cc1ccc(O)cc1
logP: 1.26
//
molecule: O=C(O)Cc1ccc(O)c(O)c1
logP: 0.98
//
molecule: O=C(O)c1cc(O)c(O)c(O)c1
logP: 0.72
//
molecule: O=C(O)Cn1ccc2ccccc21
logP: 1.92
//
molecule: CC(C)CCOC(=O)c1ccccc1
logP: 4.1
//
molecule: O=C(O)c1cc(O)cc(O)c1
logP: 0.94
//
molecule: COc1cc(CC(=O)O)ccc1O
logP: 1.18
//
molecule: O=C(O)Cc1cc(O)ccc1O
logP: 0.86

====

# logP values compiled below

molecule: CCCCOC(=O)c1ccccc1
logP: 3.68
--
molecule: O=C(O)CCn1ccc2ccccc21
logP: 2.2
--
molecule: O=C(O)C1CCCCC1
logP: 1.96
--
molecule: O=C(O)c1ccc(O)c(O)c1
logP: 0.99
--
molecule: COc1cc(C(O)C(=O)O)ccc1O (stereo not drawn)
logP: 0.84
--
molecule: O=C(O)c1cc2ccccc2cc1O
logP: 3.05
--
molecule: O=C(O)Cn1ccc2cc(O)ccc21
logP: 1.17
--
molecule: CCC(=O)c1ccccc1
logP: 2.3
